Biological target: Hexose transporter 1 (Plasmodium falciparum)
Assay: ST_JUDE_LEISH: Cytotoxicity at 2uM final concentration against transgenic Leishmania Mexicana promastigotes LmPfHT that are glucose transport deficient and complemented with the Plasmodium falciparum hexose transporter. Activity is measured by DNA content using SYBR green in vitro
Format: functional
inhibition overview
Value expressed in %; do not type the unit.

Worked examples follow.
• CCCCCCOc1ccc(C(=O)NCCCC2CCCN(CCCCCNC(=O)C=Cc3ccc(Cl)c(Cl)c3)C2)cc1 (centres undefined) = 0.51
• CCCC(C)NC(=O)[C@H](Cc1ccccc1)NC(=O)c1ccc(O)c(-c2ccc(OC)cc2)c1 (some centres undefined) = 3.09
• Cc1cccc2nc(-c3cccc(-c4ccc(NC(=O)c5ccoc5)cc4)c3)[nH]c12 = 2.14
• COc1ccc(C=NNc2nc(O)cc(-c3ccccc3)n2)cc1OC = -1.28
• Cc1ccc(NC(C)C(=O)Nc2ccccc2)cc1S(=O)(=O)N1CCCCCC1 (centres undefined) = 9.81
• N=C(N)NN=Cc1ccc2ccc3ccccc3c2c1 = 7.75
• COCCOc1cccc(CN2CCC(c3cc4nc(C)cc(C(F)(F)F)n4n3)C2)c1 (centres undefined) = 4.65
• Cc1noc(C)c1-c1cccc(CNCc2ccc(-c3ccc(-c4nc5cc(F)ccc5[nH]4)s3)cc2)c1 = 10.3

Now for a further compound.
Input: Give its inhibition value. Item: N=C(NC1CC1)c1ccc2[nH]c(CCCCCc3nc4cc(C(=N)NC5CC5)ccc4[nH]3)nc2c1
Output: -0.68

###

inhibition overview
Molecular target: Glucose transporter (Leishmania mexicana) (UniProt O61059)
Assay: ST_JUDE_LEISH: Cytotoxicity at 2uM final concentration against transgenic Leishmania Mexicana promastigotes LmGT2 that are glucose transport deficient and complemented with the L. Mexicana glucose transporter 2. Activity is measured by DNA content using SYBR green in vitro
Format: functional
Value expressed in %; do not type the unit.

Input: Give its inhibition value. Item: NC1CCCN(Cc2cccc(-c3ccc(-c4nc5cc(C(F)(F)F)ccc5[nH]4)cc3)c2)C1 (centres undefined)
Output: 2.55

Input: Give its inhibition value. Item: Fc1ccc2[nH]c(-c3ccc(-c4ccc(CNCCN5CCNCC5)cc4)cc3)nc2c1
Output: 0.99

Input: Give its inhibition value. Item: COC(=O)c1cccc(OCCNC2CCN(C[C@H](O)c3ccnc4ccc(OC)cc34)CC2)c1
Output: 0.25

Input: Give its inhibition value. Item: O=C(Nc1nc(-c2ccccn2)cs1)c1ccc(S(=O)(=O)N2CCc3ccccc32)cc1
Output: 2.63

###

inhibition overview
Molecular target: Solute carrier family 2, facilitated glucose transporter member 1 (Homo sapiens) (UniProt P11166)
Sequence (P11166 whole entry): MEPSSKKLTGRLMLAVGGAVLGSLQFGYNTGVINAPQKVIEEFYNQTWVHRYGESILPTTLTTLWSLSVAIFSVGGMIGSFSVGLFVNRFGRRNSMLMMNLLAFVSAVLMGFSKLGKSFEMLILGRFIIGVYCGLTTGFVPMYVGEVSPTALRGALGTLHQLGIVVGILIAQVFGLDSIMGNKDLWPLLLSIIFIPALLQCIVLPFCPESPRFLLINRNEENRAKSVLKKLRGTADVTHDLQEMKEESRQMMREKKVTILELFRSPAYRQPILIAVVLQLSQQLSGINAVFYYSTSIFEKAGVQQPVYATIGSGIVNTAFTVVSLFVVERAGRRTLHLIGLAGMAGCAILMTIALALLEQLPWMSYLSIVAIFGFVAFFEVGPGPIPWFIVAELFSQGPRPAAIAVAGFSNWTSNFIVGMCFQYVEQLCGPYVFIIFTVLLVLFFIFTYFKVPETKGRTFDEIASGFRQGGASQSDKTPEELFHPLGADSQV
Experiment: ST_JUDE_LEISH: Cytotoxicity at 2uM final concentration against transgenic Leishmania Mexicana promastigotes LmGLUT1 that are glucose transport deficient and complemented with the human glucose transporter GLUT1. Activity is measured by DNA content using SYBR green in vitro
Format: functional
Value expressed in %; do not type the unit.

Worked examples follow.
• CCN(CC)C(=O)c1cccc(C=Cc2ccc(-c3c(C)[nH]c(C)c(Cl)c3=O)cc2)c1 = 2.65
• Cc1cc(OCCCNc2nc(NCCc3ccc(O)cc3)nc(N3CCNCC3)n2)c(Cl)c(C)c1Cl = 0.58
• CN(C)CCn1c(=N)n(CC(O)c2ccc(Cl)c(Cl)c2)c2ccccc21 (stereo not drawn) = 6.31
• COC(=O)c1cc(OC)c(OC)cc1NC(=O)NC12CC3CC(CC(C3)C1)C2 = 4.1
• CN1CCN(CC(=O)Nc2cccc(-c3ccc(-c4nc5cc(C(F)(F)F)ccc5[nH]4)cc3)c2)CC1 = 0.96
• NC(=O)C1Cc2ccccc2CN1CC(=O)Nc1ccccc1Sc1ccccc1 (stereo not drawn) = 2.73
• COc1ccc(-c2ccc(NC(=O)c3ccc(Cl)cc3)cc2)cc1CN1CCN(C)CC1 = -0.67
• Cc1ccccc1C1CCN(C2CCC(NC(=O)/C=C/c3ccc(C#N)cc3)CC2)CC1 (stereo not drawn) = 3.43

Input: Give its inhibition value. Item: Cc1ccc(C)c(C2CCN(CCCCNC(=O)c3ccc(NC(=O)c4ccc(Cl)cc4)cc3)CC2)c1
Output: -1.18

Input: Give its inhibition value. Item: CO/C(=C\C=C\c1cc2cc(Cl)c(Cl)cc2[nH]1)C(=O)NCCCN1CCCC[C@@H]1C
Output: 3.54

Input: Give its inhibition value. Item: CC(=O)Nc1ccc(OCCCCN(Cc2ccccc2OC(F)(F)F)c2ccc(C(F)(F)F)c(C#N)c2)c(Cl)c1
Output: 1.46

###

Target: Glucose transporter (Leishmania mexicana) (UniProt O61059)
Test: ST_JUDE_LEISH: Cytotoxicity at 2uM final concentration against transgenic Leishmania Mexicana promastigotes LmGT2 that are glucose transport deficient and complemented with the L. Mexicana glucose transporter 2. Activity is measured by DNA content using SYBR green in vitro
Format: functional
endpoint: inhibition (%)
Value expressed in %; do not type the unit.

Worked examples follow.
- Cc1cccc(CCNC(=O)c2cc(Br)cc(N3CCN(c4ccncc4)CC3)c2)c1: 1.78
- CC(C)Cn1cc(C2CCN(CCN3CCC(CNC(=O)c4ccc(NC(=O)c5cc(Cl)cc(Cl)c5)cc4)CC3)CC2)c2ccccc21: 1.97

Input: Give its inhibition value. Item: N=C(N)c1ccc(-c2cc(-c3cccc(C(=N)N)c3)on2)cc1
Output: 2.32

Input: Give its inhibition value. Item: CC(C)(C)c1ccc(-c2csc(NC(=O)CC(c3ccccc3)c3ccccc3)n2)cc1
Output: 2.07

Input: Give its inhibition value. Item: CC(C)CCNCC(O)Cn1c2ccc(Cl)cc2c2cc(Cl)ccc21 (stereo unspecified)
Output: 0.33

Input: Give its inhibition value. Item: CN1CCN(CC(O)CNC(=O)Nc2ccc(Cl)cc2)CC1 (stereo unspecified)
Output: 2.94

###

Molecular target: Glucose transporter (Leishmania mexicana)
Test: ST_JUDE_LEISH: Cytotoxicity at 2uM final concentration against transgenic Leishmania Mexicana promastigotes LmGT2 that are glucose transport deficient and complemented with the L. Mexicana glucose transporter 2. Activity is measured by DNA content using SYBR green in vitro
Assay type: functional
inhibition overview
Value expressed in %; do not type the unit.

* Cc1cccc2nc(-c3ccc(-c4cccc(CNCc5ccc(CN)cc5)c4)s3)[nH]c12 | 4.55
* O=C(CCc1c[nH]cn1)Nc1cccc(-c2cccc(-c3nc4cc(C(F)(F)F)ccc4[nH]3)c2)c1 | 0.79

Now for a further compound.
Input: Form field: inhibition recorded for CN(CCc1ccccc1)c1ncc(-c2ccccc2CNCc2ccccc2O)cn1 with Glucose transporter (Leishmania mexicana) (enter value)
Output: 2.23

###

inhibition overview
Target: Glucose transporter (Leishmania mexicana)
Assay: ST_JUDE_LEISH: Cytotoxicity at 2uM final concentration against transgenic Leishmania Mexicana promastigotes LmGT2 that are glucose transport deficient and complemented with the L. Mexicana glucose transporter 2. Activity is measured by DNA content using SYBR green in vitro
Type: functional
Value expressed in %; do not type the unit.

Worked examples follow.
• CC1(C)N=C(N)N=C(NOCc2ccc(Cl)c(Cl)c2)N1 = 1.84
• CC(=O)Nc1ccc(COc2ccc(Nc3ccnc4cc(-c5ccccn5)ccc34)cc2)cc1 = 1.17
• O=C(Nc1ccc(Cl)cc1)Nc1nc2cc([N+](=O)[O-])ccc2[nH]1 = 0.02
• Cc1ccc(C(=O)NC2CCN(CCNC(=O)Nc3cc(C)nc4ccccc34)CC2)cc1 = -1.45
• N#CCCn1nc(-c2ccc(Cl)cc2)c2c(c1=O)CCCC2 = 1.01

Input: Form field: inhibition recorded for FC(F)(F)Oc1cccc(CNc2noc(-c3sccc3Br)n2)c1 with Glucose transporter (Leishmania mexicana) (enter value)
Output: 0.8

Input: Form field: inhibition recorded for COc1ccc2nc(Nc3nc4cnccc4[nH]3)sc2c1 with Glucose transporter (Leishmania mexicana) (enter value)
Output: 5.34

###

Molecular target: Glucose transporter (Leishmania mexicana) (UniProt O61059)
Assay: ST_JUDE_LEISH: Cytotoxicity at 2uM final concentration against transgenic Leishmania Mexicana promastigotes LmGT2 that are glucose transport deficient and complemented with the L. Mexicana glucose transporter 2. Activity is measured by DNA content using SYBR green in vitro
Assay type: functional
inhibition overview
Value expressed in %; do not type the unit.

Worked examples follow.
• Oc1cccc(-c2nc(-c3ccccc3)c(-c3ccc4oc5ccc(-c6[nH]c(-c7cccc(O)c7)nc6-c6ccccc6)cc5c4c3)[nH]2)c1 = 2.11
• O=C(NCCCCN1CCN(c2cccc(Cl)c2Cl)CC1)c1ccc2c(c1)CCN(C1CCC1)CC2 = -0.46
• Nc1ncc(Cc2ccc3c(ccc4ccccc43)c2)c(N)n1 = 11.9

Input: Give its inhibition value. Item: COc1cc2nc(N3CCC(CNC(=O)c4ccc(-c5ccc(C(=O)N(C)C)cc5OCCN(C)C)cc4)CC3)nc(N)c2cc1OC
Output: 0.37

Input: Give its inhibition value. Item: Fc1ccc2[nH]c(-c3ccc(-c4cccc(CN5CCC(CCN6CCCCC6)CC5)c4)cc3)nc2c1
Output: 0.37

Input: Give its inhibition value. Item: c1ccc(-c2ccc(CNCc3ccc(-c4cccc(-c5nc6ccccc6[nH]5)c4)cc3)s2)nc1
Output: 0.61

Input: Give its inhibition value. Item: O=S(=O)(NCCN1CCCC1)c1ccc(-c2cccc(CNC3Cc4ccccc4C3)c2)cc1
Output: 6.15

Input: Give its inhibition value. Item: Cc1ccc(Cn2c(N3CCC(C(=O)NCc4cccs4)CC3)nc3ccccc32)cc1
Output: 7.85

Input: Give its inhibition value. Item: COc1ccc(-c2nonc2NC(=O)c2cccc(C)c2)cc1OC
Output: 10.1

Input: Give its inhibition value. Item: CCc1c(C(=O)NC2CCC(N3CCC(c4ccccc4C)CC3)CC2)[nH]c2ccc(Br)cc12 (stereo not drawn)
Output: 3.97

Input: Give its inhibition value. Item: COc1c(C2CCN(CCCCNC(=O)c3ccc(-c4ccc(C(F)(F)F)cc4)c(C(=O)OC(C)C)c3)CC2)ccc2c1CCCC2
Output: 0.91

Input: Give its inhibition value. Item: Oc1ccc(-c2ccccc2)cc1CNC1CCCCC1
Output: 2.38

Input: Give its inhibition value. Item: Cc1cccc2nc(-c3cccc(-c4cccc(NC(=O)c5ccoc5)c4)c3)[nH]c12
Output: 0.26

Input: Give its inhibition value. Item: COc1ccc2nccc([C@@H](O)CN3CCC(NC(=O)c4ccc5cc[nH]c5c4)CC3)c2c1
Output: 1.32

Input: Give its inhibition value. Item: Cc1cccc2nc(-c3ccc(-c4cccc(CN5CCCC(N)C5)c4)s3)[nH]c12 (stereo not drawn)
Output: 11.7

Input: Give its inhibition value. Item: Cc1nc2sccn2c1C(=O)NCCc1ccccc1Cl
Output: 1.69

Input: Give its inhibition value. Item: COc1ccc2c(NN=Cc3ccccn3)ccnc2c1
Output: 11.3

Input: Give its inhibition value. Item: CC1=C(C(=O)Nc2cc3cn[nH]c3cc2F)C(c2ccc(Cl)c(NS(C)(=O)=O)c2)CC(=O)N1 (stereo not drawn)
Output: -2.27
